test: self-splicing fitness, log relative to wild type (ln ratio); higher = more splicing; Tetrahymena group I intron in knt gene, E. coli kanamycin selection, DiMSum; sequences stand for … in CUCUCU…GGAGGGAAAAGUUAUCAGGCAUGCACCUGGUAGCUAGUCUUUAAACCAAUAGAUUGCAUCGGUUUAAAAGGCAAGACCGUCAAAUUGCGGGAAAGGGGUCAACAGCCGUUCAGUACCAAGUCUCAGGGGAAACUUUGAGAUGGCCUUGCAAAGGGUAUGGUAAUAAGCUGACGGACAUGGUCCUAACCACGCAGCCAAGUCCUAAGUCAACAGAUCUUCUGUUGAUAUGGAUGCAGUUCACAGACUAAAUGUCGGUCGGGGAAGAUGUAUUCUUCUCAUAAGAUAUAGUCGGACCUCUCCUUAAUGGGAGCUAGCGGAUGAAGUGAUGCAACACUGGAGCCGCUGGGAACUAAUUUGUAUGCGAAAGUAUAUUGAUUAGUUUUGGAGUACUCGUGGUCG; conditions: 37 °C;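 note: selection with 25 µg/mL kanamycin versus none on LB agar overnight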
Given measured self-splicing fitness (ln), output criterion met if it is greater than or equal to -2 and criterion not met if not.

# seq string, class assignment
measured = [
    ("CCCUAGCAAUAUUACGAGAA", "criterion not met"),
    ("GCGGAGCAAUAUUACGGACG", "criterion not met"),
    ("GAUAAGCAAUAUUACGUAGA", "criterion met"),
    ("AUGGAGCAAUAUUACGGGCU", "criterion met"),
    ("AAUGAGCAAUAUUACGCGGU", "criterion not met"),
    ("AGAUAGCAAUAUUACGCGGA", "criterion met"),
    ("AAGUAGCAAUAUUACGUCUA", "criterion met"),
    ("AAUUAGCAAUAUUACGGCCA", "criterion met"),
]

---

test: self-splicing fitness, log relative to wild type (ln ratio); higher = more splicing; Tetrahymena group I intron in knt gene, E. coli kanamycin selection, DiMSum; sequences stand for … in CUCUCU…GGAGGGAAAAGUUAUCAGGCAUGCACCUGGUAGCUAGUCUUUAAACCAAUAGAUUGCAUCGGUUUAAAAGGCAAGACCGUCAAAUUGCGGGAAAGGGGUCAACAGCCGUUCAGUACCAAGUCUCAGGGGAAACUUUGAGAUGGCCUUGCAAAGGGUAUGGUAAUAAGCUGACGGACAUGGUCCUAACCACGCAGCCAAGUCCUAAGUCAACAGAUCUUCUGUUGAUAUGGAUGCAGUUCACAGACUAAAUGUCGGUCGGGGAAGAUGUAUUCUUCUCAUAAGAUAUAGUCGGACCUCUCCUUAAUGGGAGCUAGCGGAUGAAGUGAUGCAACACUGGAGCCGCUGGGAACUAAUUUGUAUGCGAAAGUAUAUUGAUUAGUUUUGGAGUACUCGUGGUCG; settings: 30 °C

# seq string, self-splicing fitness (ln)
data = [
    ("CGAGAGCAAUAUUACGGAAG", -3.57),
    ("UUCUAGCAAUAUUACGUGGU", -4.03),
    ("AUAUAGCAAUAUUACGAACC", -1),
    ("CGUUAGCAAUAUUACGUGUG", -0.838),
    ("GACUAGCAAUAUUACGCAGC", -3.5),
    ("CUUUAGCAAUAUUACGGCUU", -3.62),
    ("GGUGAGCAAUAUUACGGUCU", -0.893),
    ("AACAAGCAAUAUUACGGAAG", -3.98),
    ("AGGAAGCAAUAUUACGGCGG", -1.34),
    ("UGAAAGCAAUAUUACGCUCA", -1),
    ("GGUGAGCAAUAUUACGGUAG", -2.67),
    ("ACACAGCAAUAUUACGCAUA", -2.45),
    ("AAGAAGCAAUAUUACGUCAC", -3.46),
    ("CUGCAGCAAUAUUACGGUCU", -3.44),
    ("CGUCAGCAAUAUUACGGACA", -0.0785),
    ("UUAUAGCAAUAUUACGGGGA", -1.89),
    ("GCCCAGCAAUAUUACGAAUC", -0.771),
    ("GGCCAGCAAUAUUACGAUGC", -0.639),
    ("GUGUAGCAAUAUUACGAUAU", -0.699),
    ("AUAUAGCAAUAUUACGCGGA", -1.65),
    ("AGAAAGCAAUAUUACGCCGG", -1.43),
    ("AGUCAGCAAUAUUACGACCC", -0.401),
    ("ACUGAGCAAUAUUACGAGAG", -3.31),
    ("AUAUAGCAAUAUUACGACAA", -0.546),
    ("CGUAAGCAAUAUUACGUCGA", -2.94),
    ("GCCAAGCAAUAUUACGUGAG", -1.17),
    ("UUGGAGCAAUAUUACGAGUU", -4.04),
    ("ACCCAGCAAUAUUACGUGAG", -0.151),
    ("AUCGAGCAAUAUUACGUCUU", -2.79),
    ("AUGAAGCAAUAUUACGGCCU", 0.063),
    ("GGAAAGCAAUAUUACGGUCA", -0.418),
    ("AGCUAGCAAUAUUACGGUAU", -1.44),
    ("AGGGAGCAAUAUUACGUAUG", -2.98),
    ("AUAUAGCAAUAUUACGAGAA", -1.72),
    ("GAGCAGCAAUAUUACGGCCC", -1.51),
    ("CUUGAGCAAUAUUACGAAUG", -1.23),
    ("CGACAGCAAUAUUACGACUA", -2.15),
    ("AAGUAGCAAUAUUACGGCCG", -1.34),
    ("UUUUAGCAAUAUUACGGAAG", -1.3),
    ("CCUUAGCAAUAUUACGGUCG", -0.919),
    ("CUACAGCAAUAUUACGAUCG", -0.0619),
    ("GACUAGCAAUAUUACGUACG", -0.653),
    ("GUUGAGCAAUAUUACGCACC", -2.94),
    ("UCAGAGCAAUAUUACGCCCG", -2),
    ("CCACAGCAAUAUUACGAGGC", -3.21),
    ("AACCAGCAAUAUUACGAUUG", -3.19),
    ("AGAUAGCAAUAUUACGGAGA", -1.91),
    ("ACAUAGCAAUAUUACGGACG", -1.32),
    ("GUACAGCAAUAUUACGAUUU", -1.28),
    ("UCUCAGCAAUAUUACGCUUA", -2.42),
    ("ACUGAGCAAUAUUACGUUGU", -3.71),
    ("UCUCAGCAAUAUUACGGUUG", -3.46),
    ("UGGGAGCAAUAUUACGUGGA", -2.94),
    ("AUCGAGCAAUAUUACGACUA", -1.54),
    ("CAACAGCAAUAUUACGCCCA", -0.825),
    ("GUUCAGCAAUAUUACGCCGG", -2.55),
    ("GGUGAGCAAUAUUACGUGGA", -2.86),
    ("CCCAAGCAAUAUUACGCAGC", -3.93),
    ("AAGAAGCAAUAUUACGGCCC", -0.651),
    ("UGUGAGCAAUAUUACGUUAU", -4.11),
    ("CCUUAGCAAUAUUACGCGAC", -3.16),
    ("CACAAGCAAUAUUACGGACU", -2.54),
    ("GCCCAGCAAUAUUACGACCA", -1.44),
    ("GACAAGCAAUAUUACGCCGC", -3.31),
    ("AUCCAGCAAUAUUACGAGAG", -1.45),
    ("ACCGAGCAAUAUUACGUGGU", -3.77),
    ("CCGUAGCAAUAUUACGCGGA", -2.85),
]

The origin of these recorded values is the supplement of paper PMC7877785.
